System: Staphylococcus aureus
Assay: Antimicrobial activity against Staphylococcus aureus Sau 745524 assessed as inhibition of bacterial growth incubated for 16 to 18 hrs by broth micro dilution technique
Type: functional
Conditions: time 16-18 hrs
What MIC was measured for each of the following?
# number only, unit mg/L dropped from output

Return reported MIC for target or system Staphylococcus aureus, item CC(C)[C@H]1C(=O)O[C@H](C)[C@H](NC(=O)c2c3nc4c(C(=O)N[C@@H]5C(=O)N[C@H](C(C)C)C(=O)N6CCC[C@H]6C(=O)N(C)CC(=O)N(C)[C@@H](C(C)C)C(=O)O[C@@H]5C)ccc(F)c4oc-3c(F)c(=O)c2N)C(=O)N[C@H](C(C)C)C(=O)N2CCC[C@H]2C(=O)N(C)CC(=O)N1C .
32

Return reported MIC for target or system Staphylococcus aureus, item CC(C)[C@H]1C(=O)O[C@H](C)[C@H](NC(=O)c2c3nc4c(C(=O)N[C@@H]5C(=O)N[C@H](C(C)C)C(=O)N6CCC[C@H]6C(=O)N(C)CC(=O)N(C)[C@@H](C(C)C)C(=O)O[C@@H]5C)ccc(Br)c4oc-3c(Br)c(=O)c2N)C(=O)N[C@H](C(C)C)C(=O)N2CCC[C@H]2C(=O)N(C)CC(=O)N1C .
8

Return reported MIC for target or system Staphylococcus aureus, item CC(C)[C@H]1C(=O)O[C@H](C)[C@H](NC(=O)c2c3nc4c(C(=O)N[C@@H]5C(=O)N[C@H](C(C)C)C(=O)N6CCC[C@H]6C(=O)N(C)CC(=O)N(C)[C@@H](C(C)C)C(=O)O[C@@H]5C)cccc4oc-3c(I)c(=O)c2N)C(=O)N[C@H](C(C)C)C(=O)N2CCC[C@H]2C(=O)N(C)CC(=O)N1C .
2

###

Test system: L02
Test: Cytotoxicity against human L02 cells assessed as growth inhibition incubated for 68 hrs by MTT assay
Assay type: cell-based
Settings: L02, 68 h
What IC50 was measured for each of the following?
# number only, unit µM dropped from output

Provide IC50 value for the following compound: CC(C)[C@H]1C(=O)O[C@H](C)[C@H](NC(=O)c2c3nc4c(C(=O)N[C@@H]5C(=O)N[C@H](C(C)C)C(=O)N6CCC[C@H]6C(=O)N(C)CC(=O)N(C)[C@@H](C(C)C)C(=O)O[C@@H]5C)ccc(Br)c4oc-3c(Br)c(=O)c2N)C(=O)N[C@H](C(C)C)C(=O)N2C[C@@H](O)C[C@H]2C(=O)N(C)CC(=O)N1C
3.1

Provide IC50 value for the following compound: CC(C)[C@H]1C(=O)O[C@H](C)[C@H](NC(=O)c2c3nc4c(C(=O)N[C@@H]5C(=O)N[C@H](C(C)C)C(=O)N6CCC[C@H]6C(=O)N(C)CC(=O)N(C)[C@@H](C(C)C)C(=O)O[C@@H]5C)cccc4oc-3c(I)c(=O)c2N)C(=O)N[C@H](C(C)C)C(=O)N2CCC[C@H]2C(=O)N(C)CC(=O)N1C
20.9

###

Test system: RKO
Assay: Cytotoxicity against human RKO cells assessed as growth inhibition incubated for 68 hrs by MTT assay
Assay type: functional, cell-based
What pIC50 was measured for each of the following?
Keep it numeric: pIC50 is minus log10 of the concentration in mol/L.

Provide pIC50 value for the following compound: CC(C)[C@H]1C(=O)O[C@H](C)[C@H](NC(=O)c2c3nc4c(C(=O)N[C@@H]5C(=O)N[C@H](C(C)C)C(=O)N6CCC[C@H]6C(=O)N(CO)CC(=O)N(C)[C@@H](C(C)C)C(=O)O[C@@H]5C)ccc(Br)c4oc-3c(Br)c(=O)c2N)C(=O)N[C@H](C(C)C)C(=O)N2CCC[C@H]2C(=O)N(C)CC(=O)N1C
4.61

Provide pIC50 value for the following compound: CC(C)[C@H]1C(=O)O[C@H](C)[C@H](NC(=O)c2c3nc4c(C(=O)N[C@@H]5C(=O)N[C@H](C(C)C)C(=O)N6CCC[C@H]6C(=O)N(C)CC(=O)N(C)[C@@H](C(C)C)C(=O)O[C@@H]5C)ccc(I)c4oc-3c(I)c(=O)c2N)C(=O)N[C@H](C(C)C)C(=O)N2CCC[C@H]2C(=O)N(C)CC(=O)N1C
6.70

Provide pIC50 value for the following compound: CC(C)[C@H]1C(=O)O[C@H](C)[C@H](NC(=O)c2c3nc4c(C(=O)N[C@@H]5C(=O)N[C@H](C(C)C)C(=O)N6CCC[C@H]6C(=O)N(C)CC(=O)N(C)[C@@H](C(C)C)C(=O)O[C@@H]5C)ccc(Br)c4oc-3c(Br)c(=O)c2N)C(=O)N[C@H](C(C)C)C(=O)N2C[C@@H](O)C[C@H]2C(=O)N(C)CC(=O)N1C
5.89
